target: RsSTT200 RBD; assay: ELISA
parameter measured: EC50

Query :: Consider the binder shown here: M8a-30 (antibody, V domains shown) VH: QVHLQQSGPELVKPGASVKISCKASGYGFSSSWMNWVKQRPGKGLEWIGRIYPGDGDTNYNDKFQGKATLTADRSSSTAYMHLTSLTSADSAVYFCARSLLYSFDYWGQGTTLTVSS VL: DVVVTQTPLSLPVSFGDQVSISCRSSQSLAGSYGHTYLSWYLHKSGQSPQLLIYGISNRFSGVPDRFSGSGSGTDFTLKISTIKPEDLGMYYCLQGTHQPLTFGAGTKLELK What is its recorded EC50?
Result :: > 10 µg/mL

Query :: Consider the binder shown here: M8a-11 (antibody, V domains shown) VH: EVQLQQSGPELVKPGASVKIPCKASGYTFTDYNMDWVKQSHEKSLEWIGEIDPNNGDTIYNQKFKGKASLTVDKSSSTAYMELRSLTSEDTAVYYCAKRGYYGSSLWWYFDVWGTGTTVTVSS VL: DIQMTQSSSSFSVSLGDRVTITCKASEDIYIRLAWYQQRPGNAPRLLISNAISLETGVPSRFSGSGSGKDYTLSITSLQTEDVATYYCQQYWSTPWTFGGGTKLEIK What is its recorded EC50?
Result :: > 10 µg/mL

Query :: Consider the binder shown here: M8a-25 (antibody, V domains shown) VH: EVQLQQSVAELVRPGASVKLSCTASGFNIKNTYMHWVKQRPEQGLEWIGRIDPSIDHTRYAPKFQGKAVITAFTSSNTAYLQLSSLTSEDTAIYYCAREGGGNYPYYYAIDYWGQGTSVTVSS VL: DIQMTQSSSSFSVSLGDRVTITCKASEDIYIRLAWYQQRPGNAPRLLISNAISLETGVPSRFSGSGFGKDHTLSITSLQTEDVATYYCQQYWSTPWTFGGGTKLEIK What is its recorded EC50?
Result :: > 10 µg/mL
